Ref: ChEMBL document CHEMBL1649159

- test-name: Drug activation in metronidazole-susceptible Helicobacter pylori RIG 117 J0 lysate
readout: Km (µM)
Numbers only, in µM.

| compound | Km [µM] |
| --- | --- |
| Cc1cc2nc3c(=O)[nH]c(=O)nc-3n(C[C@H](O)[C@H](O)[C@H](O)COP(=O)(O)OP(=O)(O)OC[C@H]3O[C@@H](n4cnc5c(N)ncnc54)[C@H](O)[C@@H]3O)c2cc1C [FLAVIN ADENIN DINUCLEOTIDE] | 95 |

Consider the additional compound presented here.
### Prompt Which Km is reported for this compound? NC(=O)N/N=C/c1ccc([N+](=O)[O-])o1 [NITROFURAZONE]
### Response 8.1
